Value source: patent US12240853B2

assay.notes: Example 18 cynomolgus monkey PK study (SC and IM)
Type: in vivo, cynomolgus monkeys
condition.summary: male, cynomolgus monkey, plasma, sc, 20 mg/kg, SC 20 mg/kg equivalent of EFdA; Mean; 0.042 days; read-out: Example 18 plasma concentrations

molecule: C#C[C@]1(COC(=O)CCCCCCCCC)O[C@@H](n2cnc3c(N)nc(F)nc32)C[C@@H]1OC(=O)CCCCCCCCC [Example 18]
concentration at 0.042 days [ng/mL]: 0.905

* * *

assay.notes: Example 18 cynomolgus monkey PK study (SC and IM)
Type: in vivo, cynomolgus monkeys
condition.summary: male, cynomolgus monkey, plasma, intramuscular, 20 mg/kg equivalent of EFdA, IM 20 mg/kg equivalent of EFdA; Monkey 2001; 17 days; read-out: Example 18 plasma concentrations
result.type: concentration at 17 days (ng/mL)

smiles.notation: C#C[C@]1(COC(=O)CCCCCCCCC)O[C@@H](n2cnc3c(N)nc(F)nc32)C[C@@H]1OC(=O)CCCCCCCCC
experimental.value: 0.135
